target: Amyloid-beta precursor protein (Homo sapiens); test: Inhibition of amyloid beta 42 (unknown origin) self aggregation at 50 uM by ThT-based fluorometric method relative to control
The following compounds are listed with their measured inhibition values.

COMPOUND	QUALIFIER_SYMBOL	inhibition / %
Oc1cc(O)cc(CCc2ccc(Nc3c4c(nc5cc(Cl)ccc35)CCCC4)cc2)c1	=	37.3
COc1cc(CCc2ccc(Nc3c4c(nc5cc(Cl)ccc35)CCCC4)cc2)cc(OC)c1	=	17.6
Oc1ccc(/C=C/c2cc(O)cc(O)c2)cc1 [RESVERATROL]	=	30
COc1ccc2nc3c(c(N)c2c1)CCCC3	<	5
Oc1cc(O)cc(/C=C/c2ccc(Nc3c4c(nc5cc(Cl)ccc35)CCCC4)cc2)c1	=	31.2
COc1cc(/C=C/c2ccc(Nc3c4c(nc5cc(Cl)ccc35)CCCC4)cc2)cc(OC)c1	=	21.6
